# TARGET_ENTITY: UniProt:P08908
# Sequence (P08908 whole entry): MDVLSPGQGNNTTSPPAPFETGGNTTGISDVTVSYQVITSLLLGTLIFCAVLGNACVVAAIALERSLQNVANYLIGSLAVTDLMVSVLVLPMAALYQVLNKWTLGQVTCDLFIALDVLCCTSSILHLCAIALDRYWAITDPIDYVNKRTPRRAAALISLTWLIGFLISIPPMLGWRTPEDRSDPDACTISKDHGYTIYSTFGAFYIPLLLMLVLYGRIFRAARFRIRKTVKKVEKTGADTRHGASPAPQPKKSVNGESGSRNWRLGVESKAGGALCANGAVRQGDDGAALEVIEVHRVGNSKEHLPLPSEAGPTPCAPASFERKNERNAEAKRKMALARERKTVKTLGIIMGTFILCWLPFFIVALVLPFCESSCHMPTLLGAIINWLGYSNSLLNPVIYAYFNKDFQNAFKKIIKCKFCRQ
Each entry below carries its reported Ki.
VALUE_KIND: Ki

[
  {
    "SMILES_ENTRY": "Fc1ccc2[nH]cc(CCN3CCN(c4nsc5ccccc45)CC3)c2c1",
    "TARGET_ENTITY": "UniProt:P08908",
    "VALUE_KIND": "Ki",
    "MEASURED_VALUE": "1.6 nM"
  },
  {
    "SMILES_ENTRY": "Fc1ccc(N2CCN(CCCc3c[nH]c4ccc(F)cc34)CC2)c(-c2cccs2)c1",
    "TARGET_ENTITY": "UniProt:P08908",
    "VALUE_KIND": "Ki",
    "MEASURED_VALUE": "38 nM"
  },
  {
    "SMILES_ENTRY": "Fc1ccc(N2CCN(CCCc3c[nH]c4ccc(F)cc34)CC2)c(-c2ccoc2)c1",
    "TARGET_ENTITY": "UniProt:P08908",
    "VALUE_KIND": "Ki",
    "MEASURED_VALUE": "15 nM"
  }
]

====

# PROTOCOL_DETAILS: Half life in rat liver microsomes at 1 uM in presence of NADPH generating system measured for 10 to 90 mins by LC-MS/MS analysis
# Assay type: ADME, Microsome
VALUE_KIND: log10(half-life at 1 µM) (log10 of the value in min)

[
  {
    "SMILES_ENTRY": "Fc1ccc(N2CCN(CCCc3c[nH]c4ccc(F)cc34)CC2)c(-c2ccsc2)c1",
    "MEASURED_VALUE": 1.39
  },
  {
    "SMILES_ENTRY": "Fc1ccc2[nH]cc(CCCN3CCN(c4nsc5ccccc45)CC3)c2c1",
    "MEASURED_VALUE": 0.54
  },
  {
    "SMILES_ENTRY": "Fc1ccc2[nH]cc(CCN3CCN(c4nsc5ccccc45)CC3)c2c1",
    "MEASURED_VALUE": 0.49
  },
  {
    "SMILES_ENTRY": "N#Cc1ccc2[nH]cc(CCCCN3CCN(c4ccc5oc(C(N)=O)cc5c4)CC3)c2c1",
    "MEASURED_VALUE": 1.45
  },
  {
    "SMILES_ENTRY": "Fc1ccc2[nH]cc(CCCCN3CCN(c4nsc5ccccc45)CC3)c2c1",
    "MEASURED_VALUE": 0.53
  },
  {
    "SMILES_ENTRY": "Fc1ccc2c(C3CCN(CCCc4c[nH]c5ccc(F)cc45)CC3)noc2c1",
    "MEASURED_VALUE": 0.66
  },
  {
    "SMILES_ENTRY": "Fc1ccc(N2CCN(CCCc3c[nH]c4ccc(F)cc34)CC2)c(-c2cn[nH]c2)c1",
    "MEASURED_VALUE": 0.86
  },
  {
    "SMILES_ENTRY": "Fc1ccc(N2CCN(CCCc3c[nH]c4ccc(F)cc34)CC2)c(-c2cncnc2)c1",
    "MEASURED_VALUE": 0.82
  },
  {
    "SMILES_ENTRY": "Fc1ccc(C2CCN(CCCc3c[nH]c4ccc(F)cc34)CC2)c(-c2ccccc2)c1",
    "MEASURED_VALUE": 1.69
  },
  {
    "SMILES_ENTRY": "Fc1ccc(N2CCN(CCCc3c[nH]c4ccc(F)cc34)CC2)c(-c2cccnc2)c1",
    "MEASURED_VALUE": 0.76
  },
  {
    "SMILES_ENTRY": "Fc1ccc(C2CCN(CCCc3c[nH]c4ccc(F)cc34)CC2)c(-c2ccsc2)c1",
    "MEASURED_VALUE": 1.26
  },
  {
    "SMILES_ENTRY": "Cn1cc(-c2cc(F)ccc2N2CCN(CCCc3c[nH]c4ccc(F)cc34)CC2)cn1",
    "MEASURED_VALUE": 0.98
  },
  {
    "SMILES_ENTRY": "Fc1ccc(N2CCN(CCCc3c[nH]c4ccc(F)cc34)CC2)c(-c2ccoc2)c1",
    "MEASURED_VALUE": 1.01
  }
]
